The values you see were collected from patent US11028079B2.

Biological target: BRD4 bromodomains (Homo sapiens, UniProt O60885)
Construct: fused on or other part: T7 phage capsid protein (phage-display fusion; the phage DNA is read out by qPCR)
Experiment: BROMOscan bromodomain competition binding assay (DiscoveRx)
Details: Kd from 11 compound concentrations ranging from 0 to 10 μM, read-out: BROMOscan Relative Activity
The reader will find reported Kd values listed item by item below.

{"compound": "Cn1cc(-c2ccc3nc(-c4cnn(CC(C)(C)O)c4)nc(N4CCOC[C@@H]4c4ccccc4)c3c2)ccc1=O", "result": "< 500 nM"}
{"compound": "Cc1noc(C)c1-c1ccc2nc(NCc3ccc(Cl)cc3)nc(NCc3cccc(Cl)c3)c2c1", "result": "> 5000 nM"}
{"compound": "Cc1noc(C)c1-c1ccc2nc(C(=O)N3CCc4[nH]ncc4C3)nc(NCc3cccc(Cl)c3)c2c1", "result": "< 500 nM"}
{"compound": "Cc1noc(C)c1-c1ccc2nc(N3CCCC(CO)C3)nc(NCc3cccc(Cl)c3)c2c1 (stereo not shown)", "result": "500 to 5000 nM"}
{"compound": "Cc1noc(C)c1-c1ccc2nc(N3CCN(C(=O)c4cccnc4)CC3)nc(NCc3cccc(Cl)c3)c2c1", "result": "< 500 nM"}
{"compound": "Cc1noc(C)c1-c1ccc2nc(N3CCN(CCN(C)C)CC3)nc(NCc3cccs3)c2c1", "result": "< 500 nM"}

From here, focus on the item given below.
Suppose we examine the compound Cc1noc(C)c1-c1ccc2nc(C(=O)NCc3cncn3C)nc(NCc3cncc(Cl)c3)c2c1 ; what Kd value has been reported?
< 500 nM
